system: S. aureus Visa Mu 50 (MRSA, vancomycin intermediate susceptible); test: MIC, broth microdilution (CLSI), CAMHB; assay type: cell-based; conditions: Staphylococcus aureus; monosubstance; Sa VisaMu50; read-out: MIC
Binarize MIC at 4 µg/mL; below is TRUE, at or above is FALSE.

{"columns": ["molecule", "measurement target", "cat"],
 "data": [
  ["CC(=O)NC[C@H]1CN(c2ccc(OCC3(O)CCN(c4cc5c(cc4F)c(=O)c(C(=O)O)cn5C4CC4)CC3)c(F)c2)C(=O)O1 [Compound 1]", "S. aureus Visa Mu 50 (MRSA, vancomycin intermediate susceptible)", "TRUE"],
  ["CO/N=C(\\C(=O)N[C@@H]1C(=O)N2C(C(=O)O)=C(CSc3nc(=O)c(=O)[nH]n3C)CS[C@H]12)c1csc(N)n1 [ceftriaxone]", "S. aureus Visa Mu 50 (MRSA, vancomycin intermediate susceptible)", "FALSE"],
  ["COc1c(N2C[C@@H]3CCCN[C@@H]3C2)c(F)cc2c(=O)c(C(=O)O)cn(C3CC3)c12 [moxifloxacin]", "S. aureus Visa Mu 50 (MRSA, vancomycin intermediate susceptible)", "FALSE"],
  ["CC1(C)S[C@@H]2[C@H](NC(=O)[C@H](N)c3ccccc3)C(=O)N2[C@H]1C(=O)O [ampicillin]", "S. aureus Visa Mu 50 (MRSA, vancomycin intermediate susceptible)", "FALSE"]
]}

----------
System: K. pneumoniae ATCC 13883
Experiment: MIC, broth microdilution (CLSI), CAMHB
Assay type: cell-based
Conditions: Klebsiella pneumoniae; monosubstance; Kp ATCC13883; read-out: MIC
Procedure: MIC-testing was done immediately after preparation of the dilutions. All tests were done in duplicate and repeated once on a separate occasion. 1 mL of the bacterial suspension was transferred into a tube containing 10 mL CAMHB and was vortexed thoroughly. (S. pneumoniae 1 mL in 10 mL CAMHB+5% lysed horse blood). Columns 1-15 of the 96-well plate were inoculated with 5 μL of this suspension (1-15=antibacterial solution, 16=sterile medium without test item). Turbidity was read visually with a mirror.
Listed next: entries and their corresponding MIC.

{"columns": ["compound string", "units text", "MIC"],
 "data": [
  ["CC(C)(O/N=C(\\C(=O)N[C@@H]1C(=O)N2C(C(=O)[O-])=C(C[n+]3ccccc3)CS[C@H]12)c1csc(N)n1)C(=O)O", "mg/L", 0.25],
  ["NC[C@H]1O[C@H](O[C@H]2[C@H](O)[C@@H](O[C@H]3O[C@H](CO)[C@@H](O)[C@H](N)[C@H]3O)[C@H](N)C[C@@H]2N)[C@H](N)C[C@@H]1O", "mg/L", 0.125],
  ["CC(=O)NC[C@H]1CN(c2ccc(OCC3(O)CCN(c4cc5c(cc4F)c(=O)c(C(=O)O)cn5C4CC4)CC3)c(F)c2)C(=O)O1", "mg/L", 128],
  ["C[C@@H](O)[C@H]1C(=O)N2C(C(=O)O)=C(SCCN=CN)C[C@H]12", "mg/L", 0.25]
]}

----------
test system: S. aureus ATCC 33593 (MRSA); experiment: MIC, broth microdilution (CLSI), CAMHB; assay type: cell-based; conditions: Staphylococcus aureus; monosubstance; Sa ATCC33593; read-out: MIC

{"columns": ["compound string", "comparative sign", "MIC / mg/L"],
 "data": [
  ["COc1c(N2C[C@@H]3CCCN[C@@H]3C2)c(F)cc2c(=O)c(C(=O)O)cn(C3CC3)c12", "=", 0.06],
  ["CC(=O)NC[C@H]1CN(c2ccc(N3CCOCC3)c(F)c2)C(=O)O1", "=", 2],
  ["CO/N=C(\\C(=O)N[C@@H]1C(=O)N2C(C(=O)O)=C(CSc3nc(=O)c(=O)[nH]n3C)CS[C@H]12)c1csc(N)n1", ">", 256],
  ["CC(=O)NC[C@H]1CN(c2ccc(OCC3(O)CCN(c4cc5c(cc4F)c(=O)c(C(=O)O)cn5C4CC4)CC3)c(F)c2)C(=O)O1", "=", 0.03],
  ["CC1(C)S[C@@H]2[C@H](NC(=O)[C@H](N)c3ccccc3)C(=O)N2[C@H]1C(=O)O", "=", 64]
]}

----------
test system: S. aureus ATCC 29213; test: MIC, broth microdilution (CLSI), CAMHB; type: cell-based; settings: Staphylococcus aureus; monosubstance; Sa ATCC29213; read-out: MIC
parameter measured: log10 MIC (log10 of the value in µg/mL)

{"columns": ["compound string", "log10 MIC"],
 "data": [
  ["CO/N=C(\\C(=O)N[C@@H]1C(=O)N2C(C(=O)O)=C(CSc3nc(=O)c(=O)[nH]n3C)CS[C@H]12)c1csc(N)n1", 0.60],
  ["COc1c(N2C[C@@H]3CCCN[C@@H]3C2)c(F)cc2c(=O)c(C(=O)O)cn(C3CC3)c12", -0.92],
  ["CC(=O)NC[C@H]1CN(c2ccc(OCC3(O)CCN(c4cc5c(cc4F)c(=O)c(C(=O)O)cn5C4CC4)CC3)c(F)c2)C(=O)O1", -0.60],
  ["CC(=O)NC[C@H]1CN(c2ccc(N3CCOCC3)c(F)c2)C(=O)O1", 0.30],
  ["CC1(C)S[C@@H]2[C@H](NC(=O)[C@H](N)c3ccccc3)C(=O)N2[C@H]1C(=O)O", -0.30]
]}

----------
system: S. pneumoniae BAY 19397 (penicillin-, macrolide-, quinolone-resistant); experiment: MIC, broth microdilution (CLSI), CAMHB; assay type: cell-based; conditions: Streptococcus pneumoniae, monosubstance; Spn 19397; read-out: MIC

{"columns": ["molecule", "units text", "MIC"],
 "data": [
  ["CC1(C)S[C@@H]2[C@H](NC(=O)[C@H](N)c3ccccc3)C(=O)N2[C@H]1C(=O)O [ampicillin]", "µg/mL", 1],
  ["CC(=O)NC[C@H]1CN(c2ccc(N3CCOCC3)c(F)c2)C(=O)O1 [linezolid]", "µg/mL", 1],
  ["CO/N=C(\\C(=O)N[C@@H]1C(=O)N2C(C(=O)O)=C(CSc3nc(=O)c(=O)[nH]n3C)CS[C@H]12)c1csc(N)n1 [ceftriaxone]", "µg/mL", 4],
  ["COc1c(N2C[C@@H]3CCCN[C@@H]3C2)c(F)cc2c(=O)c(C(=O)O)cn(C3CC3)c12 [moxifloxacin]", "µg/mL", 4]
]}

----------
tested on: S. aureus DSM 11823, clone 16 (MSSA, quinolone-resistant); assay: microbe, parasite or virus in culture; type: cell-based; conditions: Staphylococcus aureus
Binarize MIC at 0.1 µg/mL; below is YES, at or above is NO.

{"columns": ["compound string", "cat"],
 "data": [
  ["CC(=O)NC[C@H]1CN(c2ccc(N3CCOCC3)c(F)c2)C(=O)O1", "NO"],
  ["CN(C)c1cc(NC(=O)CNC(C)(C)C)c(O)c2c1C[C@H]1C[C@H]3[C@H](N(C)C)C(O)=C(C(N)=O)C(=O)[C@@]3(O)C(O)=C1C2=O", "NO"],
  ["CC1(C)S[C@@H]2[C@H](NC(=O)[C@H](N)c3ccccc3)C(=O)N2[C@H]1C(=O)O", "YES"],
  ["CO/N=C(\\C(=O)N[C@@H]1C(=O)N2C(C(=O)O)=C(CSc3nc(=O)c(=O)[nH]n3C)CS[C@H]12)c1csc(N)n1", "NO"],
  ["CC(=O)NC[C@H]1CN(c2ccc(OCC3(O)CCN(c4cc5c(cc4F)c(=O)c(C(=O)O)cn5C4CC4)CC3)c(F)c2)C(=O)O1", "YES"],
  ["CN[C@H](CC(C)C)C(=O)N[C@H]1C(=O)N[C@@H](CC(N)=O)C(=O)N[C@H]2C(=O)N[C@H]3C(=O)N[C@H](C(=O)N[C@H](C(=O)O)c4cc(O)cc(O)c4-c4cc3ccc4O)[C@H](O)c3ccc(c(Cl)c3)Oc3cc2cc(c3O[C@@H]2O[C@H](CO)[C@@H](O)[C@H](O)[C@H]2O[C@H]2C[C@](C)(N)[C@H](O)[C@H](C)O2)Oc2ccc(cc2Cl)[C@H]1O", "YES"]
]}

----------
test system: E. faecium UW 3695 (linezolid and quinolone-resistant); assay: MIC, broth microdilution (CLSI), CAMHB; assay type: cell-based; settings: Enterococcus faecium; monosubstance; Efc UW3695; read-out: MIC
Listed next: entries and their corresponding MIC.

{"columns": ["compound string", "MIC, µg/mL"],
 "data": [
  ["CO/N=C(\\C(=O)N[C@@H]1C(=O)N2C(C(=O)O)=C(CSc3nc(=O)c(=O)[nH]n3C)CS[C@H]12)c1csc(N)n1", 32],
  ["CC1(C)S[C@@H]2[C@H](NC(=O)[C@H](N)c3ccccc3)C(=O)N2[C@H]1C(=O)O", 32],
  ["COc1c(N2C[C@@H]3CCCN[C@@H]3C2)c(F)cc2c(=O)c(C(=O)O)cn(C3CC3)c12", 64],
  ["CC(=O)NC[C@H]1CN(c2ccc(OCC3(O)CCN(c4cc5c(cc4F)c(=O)c(C(=O)O)cn5C4CC4)CC3)c(F)c2)C(=O)O1", 0.06],
  ["CC(=O)NC[C@H]1CN(c2ccc(N3CCOCC3)c(F)c2)C(=O)O1", 16]
]}
